assay_name: 28-day once weekly oral repeated-dose DRF study in cynomolgus monkeys (mesylate salt)
Assay type: in vivo
condition_notes: male, cynomolgus monkey, whole blood, po, 45 mg/kg, M, Day 22; read-out: AUC0-Tlast

compound: CC(C)C[C@@H]1NCCN([C@@H](CC(C)C)C(=O)N2CCC3(C[C@@H]2C)OCC(CN2CCCC2)CO3)C1=O (stereo partly shown)
unit_symbol: ng·h/mL
AUC(0-t): 3910

###

assay_name: 14-day daily oral repeated-dose DRF study in Beagle dogs (citrate salt)
Type: in vivo
condition_notes: both sexes, Beagle, dog, plasma, po, 0.1 mg/kg/day, Day 14; read-out: group mean Cmax plasma levels

compound: CC(C)C[C@@H]1NCCN([C@@H](CC(C)C)C(=O)N2CCC3(C[C@@H]2C)OCC(CN2CCCC2)CO3)C1=O (stereo partly shown)
unit_symbol: ng/mL
Cmax: 0.4

Values were extracted from patent US12611406B2.
